B1: tRNA (parent)
chain: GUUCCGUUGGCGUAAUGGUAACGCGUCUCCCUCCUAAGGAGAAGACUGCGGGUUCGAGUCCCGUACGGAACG

variants of: B1; assay: yeast fitness relative to wild type (ratio to wild type); higher = fitter; tRNA-Arg(CCU), competitive growth, 37 C, YPD
Fewer inactive variants are shown than the library holds.
So I've got a bunch of variants here, and I need their yeast fitness values.

*Q* What does the data say about its yeast fitness? Entry: U3A A21G G23C A65C
*A* ≤ 0.5

*Q* For C34U A40U A57U then?
*A* ≤ 0.5

*Q* For C4U C22G A57U G63C then?
*A* ≤ 0.5

*Q* For C4G C11A G17A A20G C27U A43U C49G C60U G68A then?
*A* ≤ 0.5

*Q* For C5G U28A C55G then?
*A* ≤ 0.5

*Q* For C27U A40G U64C then?
*A* 0.602
